# TARGET: T1, CD40 ligand, P29965
# T1 chain: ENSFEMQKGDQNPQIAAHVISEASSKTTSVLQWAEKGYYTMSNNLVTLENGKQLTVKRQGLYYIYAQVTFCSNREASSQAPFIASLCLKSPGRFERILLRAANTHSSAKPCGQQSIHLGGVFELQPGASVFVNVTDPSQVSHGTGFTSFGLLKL
# ASSAY NAME: Octet Red label-free (BLI)
METRIC: pKd
// pKd here means minus log10 of the molar concentration (mol/L)

# BINDER, VALUE REPORTED
data = [
    ("RIESLEGEMWLINPFNGETLDEHTLEVWLK (modifications not checked) [CD40L M8_748]", 8.30),
]

We next turn to a different binder, shown below.
Data request, read-out pKd, for CD40L M8_747 (modifications not checked) peptide: LAEHAVWSLKCFPDWEWYNINIFGTDDPNHFWVECDGHGKILFPGYPEGYYENHFLHSFELED 8.10
